tested on: Vero; experiment: Cytotoxicity against african green monkey Vero cells after 72 hrs by MTT assay; type: cell-based; conditions: Chlorocebus sabaeus
Endpoint Label: pEC50
// pEC50 is dimensionless: -log10 of concentration (M)

// query pEC50 value for entry `O=C(Nc1nc(-c2ccccn2)cs1)c1c(F)cccc1F`
5.49

// query pEC50 value for entry `O=C(Nc1nc(-c2ccccn2)cs1)c1cccc(Cl)c1`
5.15

// query pEC50 value for entry `CC(=O)c1ccc(C(=O)Nc2nc(-c3ccccn3)cs2)cc1`
4.98

// query pEC50 value for entry `O=C(Nc1nc(-c2ccccn2)cs1)c1ccccc1`
5.15

// query pEC50 value for entry `O=C(Nc1nc(-c2ccccn2)cs1)c1cccc(F)c1F`
5.14

// query pEC50 value for entry `O=C(Nc1nc(-c2ccccn2)cs1)c1ccccc1Br`
5.46

----------
system: Mycobacterium tuberculosis; assay: Antitubercular activity against Mycobacterium tuberculosis H37Rv in Middlebrook 7H9 broth with glucose after 7 to 14 days by broth microdilution method; type: functional
# Lookup of reported MIC99 keyed by entry
Give a bare numeral; the unit µM is implied.

# Entry Smiles, System Under Test, MIC99 / µM
rows = [
    ("Fc1ccc(Nc2nc(-c3ccccn3)cs2)cc1", "Mycobacterium tuberculosis", 25),
    ("O=C(Nc1nc(-c2ccccn2)cs1)C1CCCCC1", "Mycobacterium tuberculosis", 6.3),
    ("O=C(Nc1nc(-c2ccccn2)cs1)c1ccco1", "Mycobacterium tuberculosis", 3.1),
    ("O=C(Nc1nc(-c2ccccn2)cs1)c1cccc(F)c1", "Mycobacterium tuberculosis", 0.19),
    ("c1ccc(Nc2nc(-c3ccccn3)cs2)cc1", "Mycobacterium tuberculosis", 25),
    ("O=C(Nc1nc(-c2ccccn2)cs1)c1cc(F)ccc1F", "Mycobacterium tuberculosis", 0.39),
    ("O=C(Nc1nc(-c2ccccn2)cs1)C1CC1", "Mycobacterium tuberculosis", 12),
    ("Clc1ccc(Nc2nc(-c3ccccn3)cs2)nc1", "Mycobacterium tuberculosis", 1.6),
    ("CCCC(=O)Nc1nc(-c2ccccn2)cs1", "Mycobacterium tuberculosis", 12),
    ("Cc1cccc(C(=O)Nc2nc(-c3ccccn3)cs2)c1", "Mycobacterium tuberculosis", 0.19),
]

// query MIC99 value for entry `Oc1ccccc1Nc1nc(-c2ccccn2)cs1`
50

// query MIC99 value for entry `O=C(Nc1nc(-c2ccccn2)cs1)c1ccc(F)c(F)c1`
1.6

----------
tested on: Mycobacterium tuberculosis; experiment: Antitubercular activity against Mycobacterium tuberculosis H37Rv in Middlebrook 7H9 broth with glucose after 7 to 14 days by broth microdilution method; assay type: functional
# Lookup of reported MIC99 keyed by entry

The cases that follow already have their MIC99 on record.
# Entry Smiles, MIC99
rows = [
    ("O=C(Nc1ccccc1)c1nc(-c2ccccn2)cs1", "> 25 µM"),
    ("O=C(Nc1nc(-c2ccccn2)cs1)c1cscn1", "> 50 µM"),
    ("O=C(Nc1cc(-c2ccccn2)cs1)c1ccccc1", "> 25 µM"),
    ("CN(C(=O)c1ccccc1)c1nc(-c2ccccn2)cs1", "> 25 µM"),
]

// query MIC99 value for entry `O=C(Nc1nc(-c2ccccn2)cs1)c1ccccc1OCc1ccccc1`
> 50 µM

----------
tested on: Vero; assay: Cytotoxicity against african green monkey Vero cells after 72 hrs by MTT assay; assay type: cell-based; settings: Chlorocebus sabaeus
Endpoint Label: EC50 (µM)
Give a bare numeral; the unit µM is implied.

The cases that follow already have their EC50 on record.
# Entry Smiles, Numeric Result
data = [
    ("O=C(Nc1nc(-c2ccccn2)cs1)c1cccc(OCc2ccccc2)c1", 14.4),
    ("O=C(Nc1nc(-c2ccccn2)cs1)c1ccc(F)cc1F", 7.3),
    ("O=C(Nc1nc(-c2ccccn2)cs1)c1ccccc1Cl", 2),
]

// query EC50 value for entry `COc1ccccc1C(=O)Nc1nc(-c2ccccn2)cs1`
43.5

// query EC50 value for entry `CC(=O)c1ccccc1C(=O)Nc1nc(-c2ccccn2)cs1`
86.7

// query EC50 value for entry `O=C(Nc1nc(-c2ccccn2)cs1)c1cc(F)ccc1F`
3.3
